The measured values listed here are drawn from ChEMBL document CHEMBL1811800.

# experiment: Half life in Han Wistar rat at 0.25 mg/kg, iv by LC-MS/MS
# Type: ADME, organism-based
# Parameters: dose 0.25 mg/kg, route intravenous
# applied conditions: in vivo
endpoint: half-life (min)
Answers are plain numbers, in min.

Task: Need half-life of CC(=O)O.O=C1CNC(=O)N1c1cccc(CCCCOCCCCCCNC[C@H](O)c2ccc(O)c(CO)c2)c1 , thanks.
Result: 18

* * *

# test system: Beta-2 adrenergic receptor (Homo sapiens, UniProt P07550)
# Sequence (P07550 whole entry): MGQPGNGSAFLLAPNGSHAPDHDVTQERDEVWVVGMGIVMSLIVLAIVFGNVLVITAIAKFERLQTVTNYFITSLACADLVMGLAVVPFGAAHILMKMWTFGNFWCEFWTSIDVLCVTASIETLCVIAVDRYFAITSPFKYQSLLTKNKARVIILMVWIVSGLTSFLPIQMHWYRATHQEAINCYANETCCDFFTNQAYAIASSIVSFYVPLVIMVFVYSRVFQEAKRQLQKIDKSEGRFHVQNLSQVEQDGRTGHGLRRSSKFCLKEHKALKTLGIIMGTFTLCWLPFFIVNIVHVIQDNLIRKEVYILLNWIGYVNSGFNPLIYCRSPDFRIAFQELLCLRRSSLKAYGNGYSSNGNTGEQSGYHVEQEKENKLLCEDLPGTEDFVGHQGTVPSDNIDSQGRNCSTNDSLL
# experiment: Agonist activity at human adrenergic beta2 receptor expressed in CHO cells assessed as cAMP accumulation
endpoint: EC50 (nM)
Answers are plain numbers, in nM.

>  <cpd smiles>
CC(=O)O.O=C1CNC(=O)N1Cc1cccc(CCCCOCCCCCCNC[C@H](O)c2ccc(O)c(CO)c2)c1

>  <test system>
Beta-2 adrenergic receptor (Homo sapiens, UniProt P07550)

>  <result unit>
nM

>  <EC50>
1.26

$$$$

// for each compound below, give its EC50
1. CC(=O)O.O=C1CN(c2cccc(CCCCOCCCCCCNC[C@H](O)c3ccc(O)c(CO)c3)c2)C(=O)N1
2. CC(=O)O.O=C1CNC(=O)N1c1ccc(CCCCOCCCCCCNC[C@H](O)c2ccc(O)c(CO)c2)cc1
3. CC(=O)O.CC1(C)NC(=O)N(c2cccc(CCCCOCCCCCCNC[C@H](O)c3ccc(O)c(CO)c3)c2)C1=O
4. O=C1CNC(=O)N1c1ccccc1CCCCOCCCCCCNC[C@H](O)c1ccc(O)c(CO)c1

Result:
2.51
2
0.794
2.51

Required: EC50, one value per compound below.
1. CC(=O)O.O=C1CN(Cc2cccc(CCCCOCCCCCCNC[C@H](O)c3ccc(O)c(CO)c3)c2)C(=O)N1
2. O=c1cc[nH]c(=O)n1-c1cccc(CCCCOCCCCCCNC[C@H](O)c2ccc(O)c(CO)c2)c1

Result:
0.631
0.794

Task: Quick one: EC50 for O=c1ccn(-c2cccc(CCCCOCCCCCCNC[C@H](O)c3ccc(O)c(CO)c3)c2)c(=O)[nH]1 ?
Result: 1.26

* * *

# test system: Beta-3 adrenergic receptor (Homo sapiens)
# Sequence (P13945 whole entry): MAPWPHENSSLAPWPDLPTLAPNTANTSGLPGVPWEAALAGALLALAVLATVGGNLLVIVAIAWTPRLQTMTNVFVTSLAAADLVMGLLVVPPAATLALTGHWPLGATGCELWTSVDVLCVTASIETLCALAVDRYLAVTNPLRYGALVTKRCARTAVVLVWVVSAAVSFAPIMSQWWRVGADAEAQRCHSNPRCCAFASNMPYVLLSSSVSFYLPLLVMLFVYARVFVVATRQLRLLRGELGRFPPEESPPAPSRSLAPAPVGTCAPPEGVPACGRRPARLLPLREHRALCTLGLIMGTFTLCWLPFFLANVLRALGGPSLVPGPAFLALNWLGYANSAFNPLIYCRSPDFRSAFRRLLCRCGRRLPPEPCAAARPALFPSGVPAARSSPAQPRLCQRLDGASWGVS
# experiment: Agonist activity at human adrenergic beta3 receptor expressed in CHO cells assessed as cAMP accumulation
pEC50: −log10 of the molar value.
Class Fulfilled: pEC50 at least 7. Class Not fulfilled: pEC50 below 7.

Reference set, count: 3
>  <cpd smiles>
O=C1CNC(=O)N1c1ccccc1CCCCOCCCCCCNC[C@H](O)c1ccc(O)c(CO)c1

>  <test system>
Beta-3 adrenergic receptor (Homo sapiens)

>  <class name>
Not fulfilled

$$$$
>  <cpd smiles>
O=c1ccn(-c2cccc(CCCCOCCCCCCNC[C@H](O)c3ccc(O)c(CO)c3)c2)c(=O)[nH]1

>  <test system>
Beta-3 adrenergic receptor (Homo sapiens)

>  <class name>
Fulfilled

$$$$
>  <cpd smiles>
O=C1NC(=O)N(Cc2cccc(CCCCOCCCCCCNC[C@H](O)c3ccc(O)c(CO)c3)c2)C1=O

>  <test system>
Beta-3 adrenergic receptor (Homo sapiens)

>  <class name>
Fulfilled

$$$$

Now for another entry.
Task: Confirm if pEC50 reported for the molecule O=c1cc[nH]c(=O)n1-c1cccc(CCCCOCCCCCCNC[C@H](O)c2ccc(O)c(CO)c2)c1 is 7 or above.
Result: Not fulfilled
